# Tested on: UO-31 renal
# assay-summary: NCI tumour cell line growth inhibition, 48 h
assay-metric: TGI

# lookup: COc1c(C)cc(O)cc1C=O on UO-31 renal, TGI = > 100 µM

# lookup: COC(=O)[C@@H](C)C[C@H](Cc1cn(C)c2ccccc12)NC(=O)c1csc([C@@H](C[C@H](C(C)C)N(C)C(=O)[C@@H](NC(=O)[C@H]2CCCCN2C)C(C)C)OC(C)=O)n1 on UO-31 renal, TGI = > 16.7 µM

# lookup: COc1cc(/C=C2/SC(c3ccccc3)N(Cc3ccccc3)C2=O)cc(OC)c1OC (stereo not drawn) on UO-31 renal, TGI = > 100 µM

# lookup: O=C(O)/C=C/C(=O)N1Cc2cc3ccccc3nc2C1 on UO-31 renal, TGI = > 100 µM

# lookup: O=C1CC(c2c(-c3ccccc3)[nH]c3ccccc23)C(=O)N1 (stereo not drawn) on UO-31 renal, TGI = > 100 µM

# lookup: COc1cc(/C=C2\C[C@H]3[C@@H]4CC=C5C[C@@H](O)CC[C@]5(C)[C@H]4CC[C@]3(C)[C@H]2O)ccc1OCCN1CCCC1 on UO-31 renal, TGI = 22.4 µM

# lookup: CC(C)N1CC2CN(Cc3ccccc3)CC(C1)C2=O on UO-31 renal, TGI = > 100 µM

# lookup: O=C1NC(=S)N/C1=C\c1cc2c(=O)c3ccccc3sc2s1 on UO-31 renal, TGI = > 100 µM

These measurements were taken from PubChem BioAssay (NCI).
